Just for reference, the kinase profiling compilation of Christmann-Franck et al. (2016) is where these values come from.

Record form. Attribute: inhibition. Fill in for each entry.
target: JAK1 JH1 JH2 (human); experiment: Caliper, Mobility shift assay off-chip; conditions: compound 0.02 µM
The reply should contain only the number, in %.

q: Dear colleague, I am looking for the recorded inhibition of the following molecule: COc1cc2c(Oc3ccc4[nH]c(C)cc4c3F)ncnc2cc1OCCCN1CCCC1
a: -2.9

q: Dear colleague, I am looking for the recorded inhibition of the following molecule: CNC(=O)c1ccccc1Sc1ccc2c(/C=C/c3ccccn3)n[nH]c2c1
a: -3.3

q: Dear colleague, I am looking for the recorded inhibition of the following molecule: CNC(=O)c1cc(Oc2ccc(NC(=O)Nc3ccc(Cl)c(C(F)(F)F)c3)cc2)ccn1
a: -1.7

q: Dear colleague, I am looking for the recorded inhibition of the following molecule: Cc1ccc(Nc2nccc(N(C)c3ccc4c(C)n(C)nc4c3)n2)cc1S(N)(=O)=O
a: -2.2

---

biological target: PLK3 (human) (UniProt Q9H4B4); experiment: Caliper, Mobility shift assay off-chip; details: compound 0.2 µM
Sequence (Q9H4B4 whole entry, looked up): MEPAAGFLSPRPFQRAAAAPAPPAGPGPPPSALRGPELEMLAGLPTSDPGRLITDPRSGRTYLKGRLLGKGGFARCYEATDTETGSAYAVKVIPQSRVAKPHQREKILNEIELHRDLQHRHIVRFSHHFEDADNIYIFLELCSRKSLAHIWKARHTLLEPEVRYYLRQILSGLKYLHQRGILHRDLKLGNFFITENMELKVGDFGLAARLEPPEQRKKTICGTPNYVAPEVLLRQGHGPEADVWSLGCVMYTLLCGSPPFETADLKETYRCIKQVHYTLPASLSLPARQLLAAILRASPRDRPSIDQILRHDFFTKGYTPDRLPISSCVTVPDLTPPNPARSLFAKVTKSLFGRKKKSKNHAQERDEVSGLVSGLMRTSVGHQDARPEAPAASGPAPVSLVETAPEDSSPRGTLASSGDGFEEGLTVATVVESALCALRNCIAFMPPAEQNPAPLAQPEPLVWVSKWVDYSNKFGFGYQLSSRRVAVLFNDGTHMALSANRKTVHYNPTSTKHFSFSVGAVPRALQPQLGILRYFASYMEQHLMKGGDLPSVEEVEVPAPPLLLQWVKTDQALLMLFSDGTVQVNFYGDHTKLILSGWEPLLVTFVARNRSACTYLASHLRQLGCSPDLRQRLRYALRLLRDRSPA
assayReadout: inhibition (%)
The reply should contain only the number, in %.

q: Dear colleague, I am looking for the recorded inhibition of the following molecule: Cc1ccc(Nc2nccc(N(C)c3ccc4c(C)n(C)nc4c3)n2)cc1S(N)(=O)=O
a: 5.7

q: Dear colleague, I am looking for the recorded inhibition of the following molecule: COc1cc2c(Oc3ccc4[nH]c(C)cc4c3F)ncnc2cc1OCCCN1CCCC1
a: 7.9

q: Dear colleague, I am looking for the recorded inhibition of the following molecule: CNC(=O)c1cc(Oc2ccc(NC(=O)Nc3ccc(Cl)c(C(F)(F)F)c3)cc2)ccn1
a: 5.3

q: Dear colleague, I am looking for the recorded inhibition of the following molecule: CCN(CC)CCNC(=O)c1c(C)[nH]c(/C=C2\C(=O)Nc3ccc(F)cc32)c1C
a: 0.9

---

target: CAMK2A (human) (UniProt Q9UQM7); experiment: Caliper, Mobility shift assay off-chip; details: compound 0.02 µM
Sequence (Q9UQM7 whole entry, looked up): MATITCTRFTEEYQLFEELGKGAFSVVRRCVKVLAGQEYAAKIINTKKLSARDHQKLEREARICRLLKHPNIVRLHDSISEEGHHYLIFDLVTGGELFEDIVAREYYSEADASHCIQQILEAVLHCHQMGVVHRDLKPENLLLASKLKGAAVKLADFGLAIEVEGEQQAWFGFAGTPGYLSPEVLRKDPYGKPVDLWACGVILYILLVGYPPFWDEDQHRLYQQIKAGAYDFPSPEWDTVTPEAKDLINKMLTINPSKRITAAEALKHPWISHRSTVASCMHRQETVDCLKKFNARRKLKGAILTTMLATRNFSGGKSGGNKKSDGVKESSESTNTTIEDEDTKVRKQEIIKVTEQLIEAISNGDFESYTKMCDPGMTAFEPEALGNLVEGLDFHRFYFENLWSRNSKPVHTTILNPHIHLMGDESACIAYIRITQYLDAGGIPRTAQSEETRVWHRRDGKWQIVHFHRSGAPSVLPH
Record form. Attribute: inhibition. Fill in for each entry.
The reply should contain only the number, in %.

q: Dear colleague, I am looking for the recorded inhibition of the following compound: CNC(=O)c1ccccc1Sc1ccc2c(/C=C/c3ccccn3)n[nH]c2c1
a: 3.2

q: Dear colleague, I am looking for the recorded inhibition of the following compound: CNC(=O)c1cc(Oc2ccc(NC(=O)Nc3ccc(Cl)c(C(F)(F)F)c3)cc2)ccn1
a: -2.1

q: Dear colleague, I am looking for the recorded inhibition of the following compound: COc1cc2c(Oc3ccc4[nH]c(C)cc4c3F)ncnc2cc1OCCCN1CCCC1
a: 3.5

q: Dear colleague, I am looking for the recorded inhibition of the following compound: Cc1ccc(Nc2nccc(N(C)c3ccc4c(C)n(C)nc4c3)n2)cc1S(N)(=O)=O
a: 5.3

---

target: PRKACG (human) (UniProt P22612); assay: Caliper, Mobility shift assay off-chip; details: compound 0.02 µM
Sequence (P22612 whole entry, looked up): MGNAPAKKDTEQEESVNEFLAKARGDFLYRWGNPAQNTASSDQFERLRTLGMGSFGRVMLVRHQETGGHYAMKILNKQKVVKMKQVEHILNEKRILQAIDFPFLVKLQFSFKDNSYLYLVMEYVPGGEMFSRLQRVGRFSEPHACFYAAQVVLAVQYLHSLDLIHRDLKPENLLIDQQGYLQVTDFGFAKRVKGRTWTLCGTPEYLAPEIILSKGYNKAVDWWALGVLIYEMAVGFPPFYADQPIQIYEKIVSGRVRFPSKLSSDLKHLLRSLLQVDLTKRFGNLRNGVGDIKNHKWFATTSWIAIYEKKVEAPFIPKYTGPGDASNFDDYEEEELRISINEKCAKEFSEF
assayReadout: inhibition
Give your result as the value with the unit written after it.

q: Dear colleague, I am looking for the recorded inhibition of the following compound: COc1cc2c(Oc3ccc4[nH]c(C)cc4c3F)ncnc2cc1OCCCN1CCCC1
a: -4.7%

q: Dear colleague, I am looking for the recorded inhibition of the following compound: CNC(=O)c1cc(Oc2ccc(NC(=O)Nc3ccc(Cl)c(C(F)(F)F)c3)cc2)ccn1
a: -6.6%

q: Dear colleague, I am looking for the recorded inhibition of the following compound: CNC(=O)c1ccccc1Sc1ccc2c(/C=C/c3ccccn3)n[nH]c2c1
a: -7.8%

q: Dear colleague, I am looking for the recorded inhibition of the following compound: Cc1ccc(Nc2nccc(N(C)c3ccc4c(C)n(C)nc4c3)n2)cc1S(N)(=O)=O
a: -6.9%
